Molecular target: RORγt ligand-binding domain (RORγt-LBD) (Homo sapiens, UniProt P51449)
Construct: 20 nM recombinantly expressed RORγ-LBD fused to GST
Sequence (P51449 269-508 limits assumed): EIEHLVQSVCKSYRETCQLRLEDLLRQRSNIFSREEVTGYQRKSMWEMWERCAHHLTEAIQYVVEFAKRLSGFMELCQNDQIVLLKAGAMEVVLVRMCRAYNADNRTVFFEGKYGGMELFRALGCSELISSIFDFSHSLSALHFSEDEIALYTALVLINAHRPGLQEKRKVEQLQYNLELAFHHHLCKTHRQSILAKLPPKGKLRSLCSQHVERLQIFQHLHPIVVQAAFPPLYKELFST
Test: Time-resolved FRET (TR-FRET) RORγt coactivator assay
Conditions: GST-RORγ-LBD, biotinylated RIP140 peptide, coactivator displacement
Examples of compounds with documented IC50 follow.

Example compounds with recorded IC50:
{"columns": ["compound", "IC50"],
 "data": [
  ["Cn1ccc2cccc(C(NC(=O)Cc3ccc4[nH]cc(CCC(=O)O)c4c3)c3ccccc3)c21 (stereo not shown)", "< 1 µM"],
  ["CC(C)CC(NC(=O)Cc1ccc2[nH]cc(CCC(=O)OC(C)(C)C)c2c1)c1cccc2ccccc12 (stereo not shown)", "1 to 10 µM"],
  ["CC(C)CC(NC(=O)Cc1ccc2[nH]cc(CCC(=O)O)c2c1)c1ccccc1N1CCOCC1 (stereo not shown)", "< 1 µM"],
  ["CC(C)(C)OC(=O)CCc1c[nH]c2ccc(NC(=O)NC(c3ccccc3)c3ccccc3N3CCCCC3)cc12 (stereo not shown)", "10 to 30 µM"],
  ["COC(=O)Cc1c[nH]c2ccc(CC(=O)NC(c3ccccc3)c3cccc(N4CCCCC4)c3)cc12 (stereo not shown)", "1 to 10 µM"],
  ["O=C(O)Cc1c[nH]c2ccc(CC(=O)NC(c3ccccc3)c3ccc(Cl)cc3N3CCCC3)cc12 (stereo not shown)", "< 1 µM"]
]}

Now for the compound whose IC50 we want.
Incoming: Please provide the recorded IC50 for CCCCC(NC(=O)Cc1ccc2[nH]cc(CCC(=O)OC(C)(C)C)c2c1)c1ccccc1N(CC)CC (stereo not shown) , tested on RORγt ligand-binding domain (RORγt-LBD) (Homo sapiens, UniProt P51449).
Outgoing: 1 to 10 µM
